Molecular target: biotinylated CIB1 (Homo sapiens)
Sequence (Q99828 whole entry): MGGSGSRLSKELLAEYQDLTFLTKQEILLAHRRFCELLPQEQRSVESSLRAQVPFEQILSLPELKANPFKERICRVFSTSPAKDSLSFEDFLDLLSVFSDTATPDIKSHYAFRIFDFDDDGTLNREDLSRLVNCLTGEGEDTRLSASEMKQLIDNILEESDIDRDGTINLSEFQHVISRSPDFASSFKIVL
Test: biochemical
Type: binding
Ends that are not written are not given here.
Readout Type: Kd (nM)
Hi! Could you send only the number? It should be in nM, unit omitted.

Query: Return value of Kd for input EDGGSFWYGAMKALYG-NH2 [UNC10245092] , no commentary.
Response: 46

This collection of values is drawn from paper PMC7305997.
